Numbers sourced from patent US11999727B2.

System: HAP1 MTAP-deleted cell line
test-protocol: Viability assay, MTAP-deleted cell line
Format: cell-based
experimental-conditions: Homo sapiens, HAP1, viability assay, HAP1 MTAP-deleted; read-out: HAP1 MTAP deleted viability
Entries annotated with measured IC50
measurement-label: IC50

[[record]]
compound = "COc1ncc(NC(=O)C(=O)N2C[C@@H](C)CC[C@@H]2c2ccc(C(N)=O)s2)cc1C(N)=O (single isomer, unassigned)"
measurement_label = "IC50"
measured_value = "< 1 µM"

[[record]]
compound = "CCc1cc(NC(=O)C(=O)N2C[C@@H](C)CC[C@@H]2c2ccc3[nH]c(=O)ccc3c2)cnc1N (single isomer, unassigned)"
measurement_label = "IC50"
measured_value = "< 1 µM"

[[record]]
compound = "CNC(=O)N1CCC([C@@H]2CC[C@@H](C)CN2C(=O)C(=O)Nc2cnc(N)c(C)c2)CC1 (racemic)"
measurement_label = "IC50"
measured_value = "1 to 10 µM"

[[record]]
compound = "CCOc1ncc(NC(=O)C(=O)N2C[C@H](C)CC[C@H]2c2ccccc2)cc1C(N)=O (single isomer, unassigned)"
measurement_label = "IC50"
measured_value = "> 10 µM"

[[record]]
compound = "CCOc1ncc(NC(=O)C(=O)N2C[C@@H](C)CC[C@@H]2c2ccccc2)cc1C(N)=O (single isomer, unassigned)"
measurement_label = "IC50"
measured_value = "1 to 10 µM"

[[record]]
compound = "Cc1ncc(NC(=O)C(=O)N2C[C@H](C)CC[C@H]2c2ccc3c(c2)CCC(=O)N3)cc1Cl (single isomer, unassigned)"
measurement_label = "IC50"
measured_value = "< 1 µM"

[[record]]
compound = "Cc1cc(NC(=O)C(=O)N2C[C@H](C)CC[C@H]2c2ccc3ncsc3c2)cnc1N (racemic)"
measurement_label = "IC50"
measured_value = "< 1 µM"

[[record]]
compound = "C[C@@H]1CC[C@@H](c2cncc(Cl)c2)N(C(=O)C(=O)Nc2cncc(C(N)=O)c2)C1 (racemic)"
measurement_label = "IC50"
measured_value = "1 to 10 µM"

[[record]]
compound = "CCc1cc(NC(=O)C(=O)N2C[C@@H](C)CC[C@@H]2c2ccc(F)cc2)cnc1N (racemic)"
measurement_label = "IC50"
measured_value = "< 1 µM"

[[record]]
compound = "Cc1nc2cc([C@@H]3CC[C@@H](C)CN3C(=O)C(=O)Nc3cnc(N)c(C)c3)ccc2s1 (single isomer, unassigned)"
measurement_label = "IC50"
measured_value = "> 10 µM"

[[record]]
compound = "COc1ncc(NC(=O)C(=O)N2C[C@@H](C)CC[C@@H]2c2ccc(C)nc2)cc1C(N)=O (single isomer, unassigned)"
measurement_label = "IC50"
measured_value = "> 10 µM"

[[record]]
compound = "Cc1cc(NC(=O)C(=O)N2C[C@@H](C)CC[C@H]2C23CC(O)(C2)C3)cnc1N (racemic)"
measurement_label = "IC50"
measured_value = "> 10 µM"

[[record]]
compound = "CCc1cc(NC(=O)C(=O)N2C[C@H](C)CC[C@H]2c2ccc3sc(C)nc3c2)cnc1N (single isomer, unassigned)"
measurement_label = "IC50"
measured_value = "> 10 µM"


* * *

assay-system: PRMT5 (Homo sapiens)
Construct: purchased Viva (custom protein)
Sequence (O14744 whole entry): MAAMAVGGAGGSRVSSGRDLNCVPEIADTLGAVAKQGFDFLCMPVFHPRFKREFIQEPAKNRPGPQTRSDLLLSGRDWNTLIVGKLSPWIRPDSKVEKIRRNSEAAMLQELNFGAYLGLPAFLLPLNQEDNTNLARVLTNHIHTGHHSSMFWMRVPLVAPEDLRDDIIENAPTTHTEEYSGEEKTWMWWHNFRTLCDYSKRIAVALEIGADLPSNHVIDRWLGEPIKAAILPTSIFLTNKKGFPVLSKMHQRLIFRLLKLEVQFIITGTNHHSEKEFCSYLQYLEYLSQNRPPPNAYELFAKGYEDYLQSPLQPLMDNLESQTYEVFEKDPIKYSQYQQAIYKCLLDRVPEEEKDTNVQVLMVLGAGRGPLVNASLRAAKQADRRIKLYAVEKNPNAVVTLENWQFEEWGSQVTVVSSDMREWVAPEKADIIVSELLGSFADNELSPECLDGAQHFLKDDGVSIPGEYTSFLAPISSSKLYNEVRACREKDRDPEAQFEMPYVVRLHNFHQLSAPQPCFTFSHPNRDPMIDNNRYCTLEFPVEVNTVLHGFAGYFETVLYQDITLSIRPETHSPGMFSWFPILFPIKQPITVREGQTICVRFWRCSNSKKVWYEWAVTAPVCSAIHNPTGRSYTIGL
Sequence (Q9BQA1 whole entry partner): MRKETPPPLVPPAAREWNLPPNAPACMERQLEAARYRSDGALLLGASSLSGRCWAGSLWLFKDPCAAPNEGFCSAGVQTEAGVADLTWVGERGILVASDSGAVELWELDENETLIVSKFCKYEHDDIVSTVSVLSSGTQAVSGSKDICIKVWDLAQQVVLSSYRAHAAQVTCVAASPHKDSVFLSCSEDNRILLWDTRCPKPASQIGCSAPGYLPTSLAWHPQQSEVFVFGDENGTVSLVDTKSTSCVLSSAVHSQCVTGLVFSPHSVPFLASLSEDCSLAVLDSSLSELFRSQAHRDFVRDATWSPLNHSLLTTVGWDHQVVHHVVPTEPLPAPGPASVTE
test-protocol: PRMT5 biochemical IC50 assay with SAM as cofactor
experimental-conditions: PRMT5, SAM as cofactor; read-out: SAM IC50
Entries and their measured IC50 follow.
measurement-label: IC50

[[record]]
compound = "Cc1cc(NC(=O)C(=O)N2C[C@H](C)CC[C@H]2c2ccc(-c3cn[nH]c3)cc2)cnc1N (single isomer, unassigned) [Compound 628]"
measurement_label = "IC50"
measured_value = "50 to 500 nM"

[[record]]
compound = "CC(C)[C@@H]1CC[C@@H](C)CN1C(=O)C(=O)Nc1cncc(C(N)=O)c1 (racemic)"
measurement_label = "IC50"
measured_value = "50 to 500 nM"

[[record]]
compound = "C[C@H]1CC[C@H](C2CCCCC2)N(C(=O)C(=O)Nc2cncc(C(N)=O)c2)C1 (single isomer, unassigned)"
measurement_label = "IC50"
measured_value = "> 500 nM"

[[record]]
compound = "C[C@@H]1CN(C(=O)C(=O)Nc2cncc(C(N)=O)c2)[C@@H](c2ccccc2)C[C@@H]1O (racemic)"
measurement_label = "IC50"
measured_value = "50 to 500 nM"

[[record]]
compound = "CCc1cc(NC(=O)C(=O)N2C[C@@H](C)CC[C@@H]2c2ccc3sc(C4CC(C)(C)N(C)C(C)(C)C4)nc3c2)cnc1N"
measurement_label = "IC50"
measured_value = "50 to 500 nM"

[[record]]
compound = "CC(=O)N1CCC(c2cccc([C@H]3CC[C@H](C)CN3C(=O)C(=O)Nc3cncc(C(N)=O)c3)c2)CC1 (single isomer, unassigned)"
measurement_label = "IC50"
measured_value = "> 500 nM"

[[record]]
compound = "C[C@@H]1CC[C@@H](c2ccc(C(F)(F)F)cc2)N(C(=O)C(=O)Nc2cncc(C(N)=O)c2)C1 (single isomer, unassigned) [Compound 508]"
measurement_label = "IC50"
measured_value = "> 500 nM"

[[record]]
compound = "C[C@H]1CC[C@H](c2ccc(O)nc2)N(C(=O)C(=O)Nc2cncc(C(N)=O)c2)C1 (single isomer, unassigned)"
measurement_label = "IC50"
measured_value = "50 to 500 nM"

[[record]]
compound = "CCc1cc(NC(=O)C(=O)N2C[C@@H](C)CC[C@@H]2c2ccc3sc(C4CCCN4C)nc3c2)cnc1N (stereo partly shown)"
measurement_label = "IC50"
measured_value = "50 to 500 nM"

[[record]]
compound = "CNc1nc2cc([C@@H]3CC[C@@H](C)CN3C(=O)C(=O)Nc3cncc(C(N)=O)c3)ccc2s1 (single isomer, unassigned)"
measurement_label = "IC50"
measured_value = "50 to 500 nM"

[[record]]
compound = "Cc1cc(NC(=O)C(=O)N2C[C@H](C(F)(F)F)CC[C@H]2c2ccccc2)cnc1N (racemic)"
measurement_label = "IC50"
measured_value = "50 to 500 nM"

[[record]]
compound = "Cc1cc(NC(=O)C(=O)N2C[C@H](C)CC[C@H]2c2ccc3sccc3c2)cnc1N (single isomer, unassigned)"
measurement_label = "IC50"
measured_value = "> 500 nM"

[[record]]
compound = "Cc1cc(NC(=O)C(=O)N2C[C@@H](C)CC[C@@H]2c2ccc3sc(C4CCN(C)CC4)cc3c2)cnc1N"
measurement_label = "IC50"
measured_value = "< 50 nM"

[[record]]
compound = "Cc1cc(NC(=O)C(=O)N2CCCC[C@@H]2c2ccccc2)cnc1N (single isomer, unassigned)"
measurement_label = "IC50"
measured_value = "50 to 500 nM"

[[record]]
compound = "Cc1ccc([C@@H]2CC[C@@H](C)CN2C(=O)C(=O)Nc2cncc(C(N)=O)c2)cc1Cl (racemic) [Compound 179]"
measurement_label = "IC50"
measured_value = "50 to 500 nM"

[[record]]
compound = "CC(=O)N1CCC(c2cccc(C3CCCCN3C(=O)C(=O)Nc3cnc(N)c(C)c3)c2)CC1 (single isomer, unassigned) [Compound 96]"
measurement_label = "IC50"
measured_value = "50 to 500 nM"

[[record]]
compound = "C[C@H]1CC[C@H]([C@@H]2CCC[C@@H](O)C2)N(C(=O)C(=O)Nc2cncc(C(N)=O)c2)C1 (single isomer, unassigned)"
measurement_label = "IC50"
measured_value = "50 to 500 nM"

[[record]]
compound = "CCc1cc(NC(=O)C(=O)N2C[C@@H](C)CC[C@@H]2c2ccc3c(c2)C(=O)N(C2CCN(C)CC2)C3)cnc1N (racemic)"
measurement_label = "IC50"
measured_value = "50 to 500 nM"

[[record]]
compound = "Cc1cc(NC(=O)C(=O)N2C[C@H](C)CC[C@H]2c2ccc(NS(C)(=O)=O)cc2)cnc1N (single isomer, unassigned)"
measurement_label = "IC50"
measured_value = "50 to 500 nM"

[[record]]
compound = "Cc1cc(NC(=O)C(=O)N2C[C@@H](C)CC[C@@H]2c2ccc(C(F)(F)F)nc2)cnc1N (single isomer, unassigned)"
measurement_label = "IC50"
measured_value = "50 to 500 nM"

[[record]]
compound = "COc1cc([C@@H]2CC[C@@H](C)CN2C(=O)C(=O)Nc2cnc(N)c(C)c2)ccn1 (single isomer, unassigned)"
measurement_label = "IC50"
measured_value = "50 to 500 nM"

[[record]]
compound = "Cc1cc(NC(=O)C(=O)N2CCCCC2c2cccc3c2ncn3C)cnc1N (stereo not shown)"
measurement_label = "IC50"
measured_value = "> 500 nM"

[[record]]
compound = "C[C@@H]1CN(C(=O)C(=O)Nc2cncc(C(N)=O)c2)[C@@H](c2ccc(F)cc2)C(F)(F)C1 (racemic)"
measurement_label = "IC50"
measured_value = "50 to 500 nM"

[[record]]
compound = "CCc1cc(NC(=O)C(=O)N2C[C@H](C)CC[C@H]2c2ccc(NC)nc2)cnc1N (single isomer, unassigned)"
measurement_label = "IC50"
measured_value = "50 to 500 nM"

[[record]]
compound = "Cc1cc([C@@H]2CC[C@@H](C)CN2C(=O)C(=O)Nc2cnc(N)c(C)c2)ccc1O (single isomer, unassigned)"
measurement_label = "IC50"
measured_value = "< 50 nM"

